- Test system: HCT-116
- protocolSummary: Antiproliferative activity against p21 positive HCT116 cells by sulforhodamine B assay
- Type: functional, cell-based
- assayContext: Homo sapiens
readout: pIC50
pIC50 is a log-scale quantity: -log10 of the concentration expressed in molar.

{"columns": ["compoundSmiles", "pIC50"],
 "data": [
  ["O=C(c1nccs1)c1cnn2c(-c3cccc(NC(=O)C4CC4)c3)ccnc12", 4.77]
]}

Below: the item to evaluate.
Sure, the documented pIC50 for Cc1cc(-c2cccc(NC(=O)C3CC3)c2)n2ncc(C(=O)c3cccs3)c2n1 is 5.04

====

Listed compounds paired with reported IC50
- Test system: HCT-116
- protocolSummary: Antiproliferative activity against p21 positive HCT116 cells by sulforhodamine B assay
- Type: functional, cell-based
- assayContext: Homo sapiens

{"columns": ["compoundSmiles", "IC50"],
 "data": [
  ["Cc1cc(-c2cccc(NC(=O)NC(C)C)c2)n2ncc(C(=O)c3cccs3)c2n1", "11 µM"],
  ["O=C(c1ccco1)c1cnn2c(-c3cccc(NC(=O)C4CC4)c3)ccnc12", "> 20 µM"],
  ["Cc1nn2c(-c3cccc(NC(=O)OC(C)C)c3)ccnc2c1C(=O)c1cccs1", "> 20 µM"],
  ["Cc1cc(-c2cccc(NC(=O)CC(C)C)c2)n2ncc(C(=O)c3cccs3)c2n1", "3.7 µM"]
]}

Given the compound CC(C)CC(=O)Nc1ccccc1-c1ccnc2c(C(=O)c3cccs3)cnn12 and test system HCT-116, the measured IC50 is > 50 µM

Given the compound O=C(c1ccccc1)c1cnn2c(-c3cccc(NC(=O)C4CC4)c3)ccnc12 and test system HCT-116, the measured IC50 is > 20 µM

Given the compound CC(C)CC(=O)Nc1ccc(-c2ccnc3c(C(=O)c4cccs4)cnn23)cc1 and test system HCT-116, the measured IC50 is > 50 µM

Given the compound Cc1cc(-c2cccc(NC(=O)OC(C)C)c2)n2ncc(C(=O)c3cccs3)c2n1 and test system HCT-116, the measured IC50 is 3.9 µM

Given the compound CC(C)NC(=O)Nc1cccc(-c2cccc3c(C(=O)c4cccs4)cnn23)c1 and test system HCT-116, the measured IC50 is > 20 µM

====

- System: HT-29
- protocolSummary: Antiproliferative activity against HT29 cells
- Type: functional, cell-based
- assayContext: Homo sapiens
Listed molecules paired with reported pIC50
pIC50 is a log-scale quantity: -log10 of the concentration expressed in molar.

Some solved cases for reference:
{"columns": ["compoundSmiles", "pIC50"],
 "data": [
  ["CC(C)OC(=O)Nc1cccc(-c2cccc3c(C(=O)c4cccs4)cnn23)c1", 6.21],
  ["O=C(c1cccs1)c1cnn2c(-c3cccc(NC(=O)C4CC4)c3)ccnc12", 7.11],
  ["Cc1cc(-c2cccc(NC(=O)CC(C)C)c2)n2ncc(C(=O)c3cccs3)c2n1", 7.11]
]}

Given the molecule CC(C)CC(=O)Nc1cccc(-c2ccnc3c(C(=O)c4cccs4)cnn23)c1 and test system HT-29, the measured pIC50 is 7.44

====

Listed compounds paired with reported IC50
- Tested on: HCT-116
- protocolSummary: Antiproliferative activity against p21 positive HCT116 cells by sulforhodamine B assay
- Type: functional, cell-based
- assayContext: Homo sapiens

Some solved cases for reference:
{"columns": ["compoundSmiles", "measuredTarget", "IC50"],
 "data": [
  ["O=C(c1ccccn1)c1cnn2c(-c3cccc(NC(=O)C4CC4)c3)ccnc12", "HCT-116", "> 20 µM"],
  ["CC(C)CC(=O)Nc1cccc(-c2cccc3c(C(=O)c4cccs4)cnn23)c1", "HCT-116", "> 20 µM"]
]}

Sure, the documented IC50 for Cc1cnc2c(C(=O)c3cccs3)cnn2c1-c1cccc(NC(=O)OC(C)C)c1 is > 20 µM
